FYI, the data here is from the PETadex activity labels (doi:10.1016/j.ijbiomac.2025.149745).

Provide the reported Proxy for plastic degradation of each item.
Assay: Proxy for plastic degradation [melting temperature]
Settings: pH 7
Give bare numbers, in °C.

# count of solved cases: 3
protein: unnamed (protein) MDGVLWRVRTAALMAALLALAAWALWASPSVEAQSNPYQRGPNPTRSALTADGPFSVATYTVSRLSVSGFGGVIYYPTGTSLTFGGIAMSPGYTADASSLAWLGRRLASHGFVVLVINTNSRFDYPDSRASQLSAALNYLRTSSPSAVRARLDANRLAVAGHSMGGGGTLRIAEQNPSLKAAVPLTPWHTDKTFNTSVPVLIVGCEADTVAPVSQHAIPFYQNLPSTTPKVYVELDNASHSCPNSNNAAISVYTISWMKLWVDNDTRYRQFLCNVNDPALSDFRTNNRHCQCQ
Proxy for plastic degradation [°C]: 83

protein: unnamed (protein) MDGVLWRVRTAALMAALLALAAWALWASPSVEAQSNPYQRGPNPTRSALTADGPFSVATYTVSRLSVSGFGGVIYYPTGTSLTFGGIAMSPGYTADASSLAWLGRRLASHGFVVLVINTNSRFDYPDSRASQLSAALNYLRTSSPSAVRARLDANRLAVAGHSMGGGGTLRIAEQNPSLKAAVPLTPWHTDKTFNTSVPVLIVGAEADTVAPVSQHAIPFYQNLPSTTPKVYVELDNASHFAPNSNNAAISVYTISWMKLWVDNDTRYRQFLCNVNDPALSDFRTNNRHCQCQ
Proxy for plastic degradation [°C]: 85

protein: unnamed (protein) MDGVLWRVRTAALMAALLALAAWALWASPSVEAQSNPYQRGPNPTRSALTADGPFSVATYTVSRLSVSGFGGVIYYPTGTSLTFGGIAMSPGYTADASSLAWLGRRLASHGFVVLVINTNSRFDYPDSRASQLSAALNYLRTSSPSAVRARLDANRLAVAGHSMGGGGTLRIAEQNPSLKAAVPLTPWHTDKTFNTSVPVLIVGAEADTVAPVSQHAIPFYQNLPSTTPKVYVELDNASHSAPNSNNAAISVYTISWMKLWVDNDTRYRQFLCNVNDPALSDFRTNNRHCQCQ
Proxy for plastic degradation [°C]: 85

Moving on to another protein below.
Asked: Report measured Proxy for plastic degradation; entry is unnamed (protein) MNFPRASRLMQAAVLGGLMAVSAAATAQTNPYARGPNPTAASLEASAGPFTVRSFTVSRPSGYGAGTVYYPTNAGGTVGAIAIVPGYTARQSSIKWWGPRLASHGFVVITIDTNSTLDQPSSRSSQQMAALRQVASLNGTSSSPIYGKVDTARMGVMGHSMGGGGSLISAANNPSLKAAAPQAPWDSSTNFSSVTVPTLIFACENDSIAPVNSSALPIYDSMSRNAKQFLEINGGSHSCANSGNSNQALIGKKGVAWMKRFMDNDTRYSTFACENPNSTRVSDFRTANCS
Given back: 48
